- Test system: Escherichia coli
- Experiment: Antibacterial activity against Escherichia coli MTCC 1687 after 24 hrs by serial dilution method
- Format: functional
- Assay Context: MTCC 1687, 24 h
Property: MIC90

Fc1ccc(C2=NN(c3ccccc3)C(c3cccc(Cl)c3Cl)C2)cc1 (stereo not given); 25 µg/mL
COc1ccccc1C1=NN(c2ccccc2)C(c2cccc(Cl)c2Cl)C1 (stereo not given); 50 µg/mL
Clc1ccc(C2=NN(c3ccccc3)C(c3cccc(Cl)c3Cl)C2)cc1 (stereo not given); 20 µg/mL
Clc1ccc(C2=NN(c3cccc(Cl)c3)C(c3cccc(Cl)c3Cl)C2)cc1 (stereo not given); 15 µg/mL
Clc1cccc(C2CC(c3ccccc3)=NN2c2ccccc2)c1Cl (stereo not given); 75 µg/mL

----------
- Test system: Escherichia coli
- Experiment: Antibacterial activity against Escherichia coli MTCC 1687 after 24 hrs by serial dilution method
- Format: functional
- Assay Context: MTCC 1687, 24 h
Property: MIC90

COc1ccc(C2=NN(c3ccccc3)C(c3cccc(Cl)c3Cl)C2)cc1 (stereo not given); 40 µg/mL
Clc1cccc(N2N=C(c3ccc4c(c3)OCO4)CC2c2cccc(Cl)c2Cl)c1 (stereo not given); 130 µg/mL
Cc1ccc(C2=NN(c3ccccc3)C(c3cccc(Cl)c3Cl)C2)cc1 (stereo not given); 60 µg/mL
COc1cccc(C2=NN(c3ccccc3)C(c3cccc(Cl)c3Cl)C2)c1 (stereo not given); 50 µg/mL
Clc1cccc(C2CC(c3ccc4c(c3)OCO4)=NN2c2ccccc2)c1Cl (stereo not given); 140 µg/mL
O=C(O)c1cn(C2CC2)c2cc(N3CCNCC3)c(F)cc2c1=O; 20 µg/mL
COc1cccc(C2=NN(c3cccc(Cl)c3)C(c3cccc(Cl)c3Cl)C2)c1 (stereo not given); 30 µg/mL
Fc1ccc(C2=NN(c3cccc(Cl)c3)C(c3cccc(Cl)c3Cl)C2)cc1 (stereo not given); 25 µg/mL
COc1ccccc1C1=NN(c2cccc(Cl)c2)C(c2cccc(Cl)c2Cl)C1 (stereo not given); 40 µg/mL
Clc1cccc(N2N=C(c3ccccc3)CC2c2cccc(Cl)c2Cl)c1 (stereo not given); 20 µg/mL

----------
- Tgt: UniProt:P59071
- Sequence (P59071 whole entry): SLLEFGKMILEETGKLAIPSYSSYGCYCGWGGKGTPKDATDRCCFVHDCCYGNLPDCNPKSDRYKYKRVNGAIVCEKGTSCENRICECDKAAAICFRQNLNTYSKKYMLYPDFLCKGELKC
Property: IC50 (µM)

Clc1cccc(C2CC(c3ccc4c(c3)OCO4)=NN2c2ccccc2)c1Cl (stereo not given); 48.2
Fc1ccc(C2=NN(c3ccccc3)C(c3cccc(Cl)c3Cl)C2)cc1 (stereo not given); 11.1
COc1ccccc1C1=NN(c2cccc(Cl)c2)C(c2cccc(Cl)c2Cl)C1 (stereo not given); 35.1
COc1ccc(C2=NN(c3ccccc3)C(c3cccc(Cl)c3Cl)C2)cc1 (stereo not given); 11.9
Clc1cccc(C2CC(c3ccccc3)=NN2c2ccccc2)c1Cl (stereo not given); 12

----------
- Tgt: Basic phospholipase A2 VRV-PL-VIIIa (Daboia russelii)
- Sequence (P59071 whole entry): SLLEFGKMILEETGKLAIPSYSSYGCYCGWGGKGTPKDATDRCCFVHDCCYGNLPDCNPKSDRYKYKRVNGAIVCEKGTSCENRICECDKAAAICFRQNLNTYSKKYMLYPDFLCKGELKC
pIC50: −log10 of the molar value.
Property: pIC50

Clc1ccc(C2=NN(c3ccccc3)C(c3cccc(Cl)c3Cl)C2)cc1 (centres undefined); 4.99
Clc1cccc(N2N=C(c3ccccc3)CC2c2cccc(Cl)c2Cl)c1 (centres undefined); 4.71
Fc1ccc(C2=NN(c3cccc(Cl)c3)C(c3cccc(Cl)c3Cl)C2)cc1 (centres undefined); 4.72
COc1ccccc1C1=NN(c2ccccc2)C(c2cccc(Cl)c2Cl)C1 (centres undefined); 4.52
Cc1ccc(C2=NN(c3ccccc3)C(c3cccc(Cl)c3Cl)C2)cc1 (centres undefined); 4.66
COc1cccc(C2=NN(c3ccccc3)C(c3cccc(Cl)c3Cl)C2)c1 (centres undefined); 4.53
COc1cccc(C2=NN(c3cccc(Cl)c3)C(c3cccc(Cl)c3Cl)C2)c1 (centres undefined); 4.52
Clc1ccc(C2=NN(c3cccc(Cl)c3)C(c3cccc(Cl)c3Cl)C2)cc1 (centres undefined); 4.84
Clc1cccc(N2N=C(c3ccc4c(c3)OCO4)CC2c2cccc(Cl)c2Cl)c1 (centres undefined); 4.30
